Recorded values, source patent US10851089B2.

Reported pIC50 values for the following compounds.
target: recombinant human MMP-13 (Homo sapiens (Human), UniProt P45452); assay: MMP selectivity assay MMP-13
pIC50: −log10 of the molar value.

Cc1cccc(COc2ccc(Sc3ccoc3C3(CC(C)C)NC(=O)NC3=O)cc2)c1 (stereo not drawn) [FC-10]; 5.00 to 6.00
CCCC1(c2occc2Sc2ccc(OCc3cccc(C)c3)cc2)NC(=O)NC1=O (stereo not drawn) [FC-11]; 5.00 to 6.00
Cc1cc(Sc2ccc(OCc3cccc(CO)c3)cc2)c(C2NC(=O)NC2=O)o1 (stereo not drawn) [FC-27]; 6.00 to 7.00
NC(=O)c1cccc(COc2ccc(Sc3ccoc3C3NC(=O)NC3=O)cc2)c1 (stereo not drawn) [FC-17]; 6.00 to 7.00
O=C1NC(=O)C(c2occc2Sc2ccc(OCc3cccc(CO)c3)cc2)N1 (stereo not drawn) [FC-23]; 5.00 to 6.00

Read the next record carefully.
So what does the record say about pIC50 for Cc1cc(COc2ccc(Sc3ccoc3C3NC(=O)NC3=O)cc2)ccn1 (stereo not drawn) [FC-4] ?
7.00 to 8.00

* * *

Target: recombinant human MMP-12 catalytic domain (Homo sapiens (Human), UniProt P39900)
Sequence (P39900 106-263): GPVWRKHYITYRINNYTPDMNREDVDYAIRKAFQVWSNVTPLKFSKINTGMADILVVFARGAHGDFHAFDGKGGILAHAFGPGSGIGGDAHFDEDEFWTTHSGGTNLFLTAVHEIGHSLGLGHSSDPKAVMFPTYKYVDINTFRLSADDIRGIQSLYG
Test: MMP-12 inhibitory assay (fluorogenic substrate cleavage)
Assay type: biochemical
Conditions: readout at 30 minutes; read-out: MMP-12 IC50
Description: The inhibitory effect of compounds on the rate of cleaving fluorogenic MMP substrate (Enzo, BML-P128) by recombinant human MMP-12 catalytic domain (Enzo, BML-SE138) was carried out by methods known in the art. […] The enzyme and compounds were pre-incubated on a shaker to mix in wells. […] The plate was then fed into a plate reader to measure fluorescence intensity at Excitation/Emission wavelengths of 340 nm/440 nm every 10 mins for at least 1 hour at 37° C. […]
Reported IC50 values for the following compounds.

Illustrative cases are given below, each with its answer.
Cc1cc(CN(C)c2ccc(Sc3ccoc3C3NC(=O)NC3=O)cc2)ccn1 (centres unmarked); > 1000 nM
CCOc1cc(COc2ccc(Sc3ccoc3C3NC(=O)NC3=O)cc2)ccn1 (centres unmarked); 10 to 100 nM
CC(C)COc1cc(COc2ccc(Sc3ccoc3C3NC(=O)NC3=O)cc2)ccn1 (centres unmarked); 100 to 1000 nM

So what does the record say about IC50 for Cc1cc(COc2ccc(Sc3ccoc3C3NC(=O)NC3=O)cc2)ccn1 (centres unmarked) ?
< 10 nM

Field entry: CCOc1cccc(COc2ccc(Sc3ccoc3C3NC(=O)NC3=O)cc2)c1 (centres unmarked)
100 to 1000 nM

* * *

biological target: recombinant human MMP-12 catalytic domain (Homo sapiens (Human)); assay: MMP-12 inhibitory assay (fluorogenic substrate cleavage); type: biochemical; details: readout at 30 minutes; read-out: MMP-12 IC50
pIC50: −log10 of the molar value.
Reported pIC50 values for the following compounds.

O=C1NC(=O)C(c2occc2Sc2ccc(OCc3ccc(CO)cc3)cc2)N1 (stereo not drawn) [FC-25]; > 8.00
Cc1cccc(COc2ccc(Sc3ccoc3C3NC(=O)NC3=O)cc2)n1 (stereo not drawn) [FC-2]; 7.00 to 8.00
Cc1cncc(COc2ccc(Sc3ccoc3C3NC(=O)NC3=O)cc2)c1 (stereo not drawn) [FC-3]; 7.00 to 8.00
CC(C)Oc1cccc(COc2ccc(Sc3ccoc3C3NC(=O)NC3=O)cc2)c1 (stereo not drawn) [FC-21]; 6.00 to 7.00
CCCC1(c2occc2Sc2ccc(OCc3cccc(C)c3)cc2)NC(=O)NC1=O (stereo not drawn) [FC-11]; > 8.00
O=C1NC(=O)C(c2occc2Sc2ccc(OCc3ccccc3CO)cc2)N1 (stereo not drawn) [FC-24]; > 8.00

So what does the record say about pIC50 for O=C1NC(=O)C(c2occc2Sc2ccc(OCc3cccc(O)c3)cc2)N1 (stereo not drawn) [FC-26] ?
> 8.00

Field entry: Cc1cccc(COc2ccc(Sc3ccoc3C3NC(=O)NC3=O)cc2)[n+]1O (stereo not drawn) [FC-5]
< 6.00

Field entry: Cc1cccc(COc2ccc(Sc3cc(C)oc3C3NC(=O)NC3=O)cc2)c1 (stereo not drawn) [FC-28]
7.00 to 8.00
